compounds and their reported pEC50
test system: YAP/TAZ-TEAD transcription; test: Reporter gene assay for measuring the inhibition of YAP/TAZ-TEAD transcription (TEAD-responsive element luciferase reporter in Hek293T cells); format: cell-based; conditions: Homo sapiens, HEK-293T, 24 h, Hek293T cells transiently transfected with TEAD-responsive element luciferase reporter, 24 hours incubation
pEC50: −log10 of the molar value.
parameter measured: pEC50

{"compound": "C=CC(=O)NCC1CN(c2ccc3scnc3c2)c2ccnn2C1 (single isomer, unassigned) [Cpd. No. 026-En1]", "parameter measured": "pEC50", "experimental value": "4.70 to 6.00"}
{"compound": "C=CC(=O)NCC1CN(c2ccc(C(F)(F)F)cc2)c2cc(CC3CC3)nn2C1 (centres unmarked) [Cpd. No. 032]", "parameter measured": "pEC50", "experimental value": "> 6.00"}
{"compound": "C=CC(=O)NCC1CN(c2ccc(C(F)(F)F)cc2)c2cc(C)nn2C1 (centres unmarked) [Cpd. No. 029]", "parameter measured": "pEC50", "experimental value": "> 6.00"}
{"compound": "CS(=O)(=O)NC(=O)C1CN(c2ccc(C(F)(F)F)cc2)c2ccnn2C1 (centres unmarked) [Cpd. No. 093]", "parameter measured": "pEC50", "experimental value": "< 4.70"}
{"compound": "C=CC(=O)NCC1CN(Cc2ccccc2)c2ccnn2C1 (single isomer, unassigned) [Cpd. No. 049-En2]", "parameter measured": "pEC50", "experimental value": "> 6.00"}
{"compound": "C=CC(=O)NCC1CN(c2ccc(Br)cc2)c2ccnn2C1 (single isomer, unassigned) [Cpd. No. 021-En1]", "parameter measured": "pEC50", "experimental value": "> 6.00"}
{"compound": "C=CC(=O)NCC1CN(c2ccc(C(F)(F)F)cn2)c2ccnn2C1 (single isomer, unassigned) [Cpd. No. 008-En1]", "parameter measured": "pEC50", "experimental value": "> 6.00"}
{"compound": "C=CC(=O)NCC1CN(Cc2cccc(C(F)(F)F)c2)c2ccnn2C1 (centres unmarked) [Cpd. No. 052]", "parameter measured": "pEC50", "experimental value": "> 6.00"}
{"compound": "C=C(F)C(=O)NCC1CN(c2ccc(C(F)(F)F)cc2)c2ccnn2C1 (centres unmarked) [Cpd. No. 039]", "parameter measured": "pEC50", "experimental value": "> 6.00"}
{"compound": "C=CC(=O)NCC1CN(C2CCCCC2)c2ccnn2C1 (centres unmarked) [Cpd. No. 037]", "parameter measured": "pEC50", "experimental value": "> 6.00"}
{"compound": "Cn1ncc2c1CC(CNS(C)(=O)=O)CN2c1ccc(C(F)(F)F)cc1 (centres unmarked) [Cpd. No. 076]", "parameter measured": "pEC50", "experimental value": "< 4.70"}
{"compound": "C=CC(=O)NCC1CNc2c(CC#Cc3ccccc3)cnn2C1 (centres unmarked) [Cpd. No. 059]", "parameter measured": "pEC50", "experimental value": "> 6.00"}
{"compound": "C=CC(=O)NC1CN(c2ccc(Cl)cc2)c2ccnn2C1 (centres unmarked) [Cpd. No. 066]", "parameter measured": "pEC50", "experimental value": "> 6.00"}
{"compound": "C=CC(=O)NCC1CN(c2ccc(C(F)(F)F)cc2)c2ccnn2C1 (centres unmarked) [Cpd. No. 002]", "parameter measured": "pEC50", "experimental value": "> 6.00"}
{"compound": "C=CC(=O)NCC1Cc2nn(C(F)F)cc2N(c2ccc(C(F)(F)F)cc2)C1 (single isomer, unassigned) [Cpd. No. 085-En2]", "parameter measured": "pEC50", "experimental value": "> 6.00"}
{"compound": "C=CC(=O)NCC1CN(c2ccc(C(F)(F)F)cc2)c2c(Br)cnn2C1 (centres unmarked) [Cpd. No. 058]", "parameter measured": "pEC50", "experimental value": "> 6.00"}
{"compound": "C#Cc1ccc(N2CC(CNC(=O)C=C)Cn3nccc32)cc1 (centres unmarked) [Cpd. No. 036]", "parameter measured": "pEC50", "experimental value": "> 6.00"}

Recorded values, source patent US20230279016A1.
